# System Name: T1, human CD7 on cells (human, UniProt P09564 26-240)
# T1 construct: whole, on cells; Target of the FACS and cell capture values and of the kill assays on CD7 single positive cells; also called CD7+ cells; Jurkat (CD33-/CD7+)
# T1 sequence (looked up): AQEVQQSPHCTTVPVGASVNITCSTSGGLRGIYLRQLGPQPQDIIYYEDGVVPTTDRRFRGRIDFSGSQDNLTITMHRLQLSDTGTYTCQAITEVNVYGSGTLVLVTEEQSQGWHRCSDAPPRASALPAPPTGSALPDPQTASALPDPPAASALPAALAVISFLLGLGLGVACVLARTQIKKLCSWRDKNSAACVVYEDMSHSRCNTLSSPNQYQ
# Assay Method Text: FACS; reference 7-PP-1 WT

| Binder | FACS fold reduction compared to PP WT (fold) |
| --- | --- |
| 7-PP-9 (Fab, V domains shown) VH: QVQLQESGAELVKPGASVKLSCKASGYTFTSYWMHWVKQRPGQGLEWIGKINPSNGRTNYNEKFKSKATLTVDKSSSTAYMQLSSLTSEDSAVYYCARGGVTYDLYYAALDYWGQGTTVTVSS VL: DIELTQSPATLSVTPGDSVSLSCRASQSISNNLHWYQQKSHESPRLLIKSASQSISGIPSRFSGSGSGTDFTLSINSVETEDFGMYFCQQSNSWPYTFGGGTKLEIKR | 517 |
| CD7-PP-8 CD7 binding arm (Fab, V domains shown) VH: QVQLQESGAELVKPGASVKLSCKASGYTFTSYWMHWVKQRPGQGLEWIGKINPSNGKTNYNEKFKSKATLTVDKSSSTAYMQLSSLTSEDSAVYYCARGGVYYDLYYAALDYWGQGTTVTVSS VL: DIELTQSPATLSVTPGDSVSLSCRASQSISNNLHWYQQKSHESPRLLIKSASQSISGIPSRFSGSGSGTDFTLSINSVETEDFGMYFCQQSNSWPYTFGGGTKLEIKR | 182 |
